Consider the following molecules; for each one, report its melting point.

Cc1cc(Oc2ccc(NS(=O)(=O)c3ccc(-c4ccccc4)cc3)c(F)c2)c2cccc(C(F)(F)F)c2n1 215 to 217 °C
COc1cc2nccc(Oc3ccc(NS(=O)(=O)c4cc(Cl)ccc4Cl)c(F)c3)c2cc1OC 228 to 230 °C
COc1cc2nccc(Oc3ccc(NS(=O)(=O)c4ccc(OC)c(C(C)(C)C)c4)cc3)c2cc1OC 229 to 231 °C

Now consider a different molecule.
Quick check: melting point of `COc1cc2nccc(Oc3ccc(NS(=O)(=O)c4cccc(Oc5ccccc5)c4)cc3OC)c2cc1OC` ?
106 to 107 °C

====

Consider the following compounds; for each one, report its IC50.
Experimental System: wild type AXL (wtAXL) receptor tyrosine kinase (Homo sapiens, UniProt P30530)
Construct: WtAXL cDNA was cloned into vector pLXSN(ESK) and transfected into Phoenix E packaging cells
Sequence (P30530 26-894): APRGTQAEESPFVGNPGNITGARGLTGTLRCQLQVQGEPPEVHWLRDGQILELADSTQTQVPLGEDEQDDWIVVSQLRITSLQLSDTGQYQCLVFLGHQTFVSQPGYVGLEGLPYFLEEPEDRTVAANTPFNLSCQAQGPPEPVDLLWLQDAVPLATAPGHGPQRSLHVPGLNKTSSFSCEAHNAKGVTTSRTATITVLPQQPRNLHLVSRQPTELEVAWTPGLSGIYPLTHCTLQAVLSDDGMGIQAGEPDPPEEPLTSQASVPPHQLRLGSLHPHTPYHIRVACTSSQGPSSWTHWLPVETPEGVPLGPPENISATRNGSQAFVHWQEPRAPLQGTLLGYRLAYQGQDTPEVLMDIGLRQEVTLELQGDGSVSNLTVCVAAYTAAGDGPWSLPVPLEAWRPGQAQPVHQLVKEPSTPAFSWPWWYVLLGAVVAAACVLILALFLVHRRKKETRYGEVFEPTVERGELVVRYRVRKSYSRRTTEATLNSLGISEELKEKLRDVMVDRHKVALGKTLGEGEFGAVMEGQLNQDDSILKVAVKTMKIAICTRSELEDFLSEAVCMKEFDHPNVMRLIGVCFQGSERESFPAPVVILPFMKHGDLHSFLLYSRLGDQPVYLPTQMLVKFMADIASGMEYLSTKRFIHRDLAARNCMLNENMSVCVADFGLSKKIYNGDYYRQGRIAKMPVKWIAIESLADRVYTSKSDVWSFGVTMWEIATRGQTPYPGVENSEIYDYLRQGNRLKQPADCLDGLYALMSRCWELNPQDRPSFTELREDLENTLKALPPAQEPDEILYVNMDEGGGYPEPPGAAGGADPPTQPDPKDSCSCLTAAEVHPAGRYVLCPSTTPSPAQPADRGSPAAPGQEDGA
Test Name: NIH-3T3-AXL cellular tyrosine kinase assay (inhibition of AXL phosphorylation)
Condition Info: AXL phosphorylation in NIH-3T3-AXL (clone 22) cells, serum-depleted, 2 h with compound, immunoprecipitation / anti-phosphotyrosine blot

Solved cases below.
Compound	Assay Metric	Observed Value
COc1cc2nccc(Oc3ccc(NS(=O)(=O)c4cc(C)c(C)cc4OC)c(F)c3)c2cc1OC	IC50	> 1 µM
COc1cc2nccc(Oc3ccc(NS(=O)(=O)c4ccccc4C(F)(F)F)c(C)c3)c2cc1OC	IC50	> 3 µM
COc1cc2nccc(Oc3ccc(NS(=O)(=O)c4cccc(-c5ccccc5)c4)cc3F)c2cc1OC	IC50	0.54 µM

Lab note: each compound below needs its IC50 filled in.
1. Cc1cc(Oc2ccc(NS(=O)(=O)c3cccc(C#N)c3)c(F)c2)c2cc(F)ccc2n1
2. COc1cc2nccc(Oc3ccc(NS(=O)(=O)c4cccc(-c5ncccn5)c4)cc3C)c2cc1OC
3. COc1cc2nccc(Oc3ccc(NS(=O)(=O)C4CC4)c(F)c3)c2cc1OC
4. COc1cc2c(Oc3ccc(NS(=O)(=O)c4ccccc4OC(F)(F)F)cc3F)ccnc2cc1OCCCNC(=O)OC(C)(C)C
5. COc1cc2c(Oc3ccc(NS(=O)(=O)c4ccc(Cl)cc4F)cc3F)ccnc2cc1OCCN1CCOCC1
6. COc1cc(S(=O)(=O)Nc2ccc(Oc3ccnc4cc(OC)c(OC)cc34)c(OC)c2)ccc1F
7. CCn1cc(S(=O)(=O)Nc2ccc(Oc3ccnc4cc(OC)c(OC)cc34)cc2F)cn1

["> 10 µM", "> 10 µM", "> 10 µM", "0.271 µM", "0.3 µM", "> 10 µM", "> 10 µM"]

Lab note: each compound below needs its IC50 filled in.
1. COc1cc2c(Oc3ccc(NS(=O)(=O)c4ccc(Cl)cc4F)cc3F)ccnc2cc1OCCCN1CCCC(C)C1 (stereo not drawn)
2. COc1cc2nccc(Oc3ccc(NS(=O)(=O)c4ccc(Cl)cc4F)cc3)c2cc1OC
3. COc1cc2nccc(Oc3ccc(NS(=O)(=O)c4cc(C)ccc4NC(C)=O)cc3)c2cc1OC
4. COc1cc2nccc(Oc3ccc(NS(=O)(=O)c4ccc(-c5ccccc5)cc4)c(C)c3)c2cc1OC

0.181 µM
> 1 µM
> 10 µM
> 10 µM

Lab note: each compound below needs its IC50 filled in.
1. COc1cc2nccc(Oc3ccc(NS(=O)(=O)c4cccc(C)c4)c(F)c3)c2cc1OC
2. Cc1cc(Oc2ccc(NS(=O)(=O)c3ccc(F)cc3F)cc2)c2cc(F)ccc2n1

1: 4.73 µM; 2: > 10 µM
